molecular target: NELF-A full-length;NELF-B;NELF-D patch mutant (called NELF-C);NELF-E (1-138) (Homo sapiens;Homo sapiens;Homo …, UniProt Q9H3P2;Q8WX92;Q8IXH7-4;P18615 1-528;49-628;1-581;1-138, ||R282Q;K306M;K362M;K363M;K365M;K375M;K379M;R410Q;R497Q|); assay: fluorescence anisotropy; yeast tRNA 5 ug/ml; NELF-AC: 30 mM NaCl, 3 mM MgCl2, 10 mM Na-HEPES pH 7.4, 2 mM DTT, 50 ug/ml BSA; other NELF complexes: same with 60 mM NaCl and 5 ug/ml yeast tRNA; 10 nM nucleic acid, incubated at RT, read at 30 C; conditions: protein: recombinant;recombinant;recombinant;recombinant; copies: 1;1;1;1; label: 5'-FAM; single strand
Sequence (Q9H3P2 whole entry, stated change not applied, chain 1 of 4): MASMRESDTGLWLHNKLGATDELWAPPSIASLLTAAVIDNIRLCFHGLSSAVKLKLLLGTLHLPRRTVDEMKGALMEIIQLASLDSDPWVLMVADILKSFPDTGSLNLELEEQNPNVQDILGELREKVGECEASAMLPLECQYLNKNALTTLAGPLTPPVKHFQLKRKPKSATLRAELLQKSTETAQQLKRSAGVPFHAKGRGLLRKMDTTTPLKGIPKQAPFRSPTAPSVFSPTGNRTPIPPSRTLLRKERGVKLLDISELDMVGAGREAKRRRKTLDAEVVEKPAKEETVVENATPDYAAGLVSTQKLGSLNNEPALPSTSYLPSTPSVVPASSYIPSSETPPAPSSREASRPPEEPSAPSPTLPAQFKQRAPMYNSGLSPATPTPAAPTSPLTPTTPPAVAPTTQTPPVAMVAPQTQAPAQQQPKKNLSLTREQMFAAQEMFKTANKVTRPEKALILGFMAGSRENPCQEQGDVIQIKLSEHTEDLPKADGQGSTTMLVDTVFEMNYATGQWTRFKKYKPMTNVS
Sequence (Q8WX92 whole entry, stated change not applied, chain 2 of 4): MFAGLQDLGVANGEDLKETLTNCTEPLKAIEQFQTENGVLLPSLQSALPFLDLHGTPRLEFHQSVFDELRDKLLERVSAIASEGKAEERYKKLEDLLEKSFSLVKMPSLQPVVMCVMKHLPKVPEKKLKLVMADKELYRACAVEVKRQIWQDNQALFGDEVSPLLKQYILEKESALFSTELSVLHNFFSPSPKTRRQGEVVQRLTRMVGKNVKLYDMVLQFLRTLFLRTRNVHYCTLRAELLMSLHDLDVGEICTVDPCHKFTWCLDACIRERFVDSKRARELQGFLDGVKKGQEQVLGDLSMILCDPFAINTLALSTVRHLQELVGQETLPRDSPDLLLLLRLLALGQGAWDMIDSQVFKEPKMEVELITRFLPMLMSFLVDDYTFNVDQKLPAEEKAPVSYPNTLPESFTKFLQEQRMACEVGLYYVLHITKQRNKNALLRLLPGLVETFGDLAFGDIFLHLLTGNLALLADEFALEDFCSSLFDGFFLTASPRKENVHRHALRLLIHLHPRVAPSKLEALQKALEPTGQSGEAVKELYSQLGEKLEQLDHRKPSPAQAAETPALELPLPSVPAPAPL
Sequence (Q8IXH7 10-590 R291Q/K315M/K371M/K372M/K374M/K384M/K388M/R419Q/R506Q, chain 3 of 4): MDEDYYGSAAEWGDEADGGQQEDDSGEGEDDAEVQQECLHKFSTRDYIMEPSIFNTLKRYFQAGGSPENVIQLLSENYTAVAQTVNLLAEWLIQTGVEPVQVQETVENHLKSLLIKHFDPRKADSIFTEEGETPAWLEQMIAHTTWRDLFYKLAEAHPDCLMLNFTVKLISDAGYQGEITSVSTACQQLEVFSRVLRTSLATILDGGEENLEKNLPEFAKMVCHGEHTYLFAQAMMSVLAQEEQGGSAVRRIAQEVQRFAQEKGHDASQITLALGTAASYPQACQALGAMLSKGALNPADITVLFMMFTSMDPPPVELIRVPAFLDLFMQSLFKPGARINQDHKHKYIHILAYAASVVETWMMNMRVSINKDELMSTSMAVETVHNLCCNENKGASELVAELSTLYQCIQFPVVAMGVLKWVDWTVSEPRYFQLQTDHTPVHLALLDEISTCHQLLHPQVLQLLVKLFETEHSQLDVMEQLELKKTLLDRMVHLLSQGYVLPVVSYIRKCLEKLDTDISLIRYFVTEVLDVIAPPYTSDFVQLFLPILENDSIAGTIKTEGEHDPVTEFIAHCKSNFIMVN
Sequence (P18615 1-138, stated change not applied, chain 4 of 4): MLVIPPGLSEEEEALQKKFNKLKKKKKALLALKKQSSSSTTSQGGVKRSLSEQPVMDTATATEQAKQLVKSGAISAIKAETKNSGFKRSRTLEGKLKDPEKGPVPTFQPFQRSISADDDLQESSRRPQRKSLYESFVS
What Kd was measured for each of the following?
Numbers only, in nM.

AAGGGGAGCGGGGGAGGATAATAGG (ssDNA) [60% GC ssDNA] = 300

Could you now look at the following binder, please?
Give the value of Kd reported for the following: AAGGGGAGCGGGGGAGGAUAAUAGG (ssRNA) [60% GC ssRNA]
94

Data origin: paper PMC4940160
